TARGET_ENTITY: Phosphodiesterase 4
ASSAY_PROCEDURE: Enzyme inhibition assay PDE4
Type: biochemical
MEASUREMENT_SETUP: enzyme assay; listed as 2
MEASURED_ENDPOINT: IC50
Answer format: number, then unit.

Form: compound = CCC(C)C=C(C)C=CC1=CC2=C(Cl)C(=O)C(C)(O)C(=O)C2=CO1 (stereo not shown) ; IC50 = 2800 nM

* * *

Tested on: Candida albicans
ASSAY_PROCEDURE: Antifungal assay, Candida albicans
Type: cell-based
MEASUREMENT_SETUP: Candida albicans; antifungal
MEASURED_ENDPOINT: pIC50
Give bare numbers, as −log10 of the molar value.

[
  {
    "COMPOUND": "CCC(C)C=C(C)C=CC1=CC2=C(Cl)C(=O)C(C)(O)C(=O)C2=CO1 (centres unmarked)",
    "TARGET_ENTITY": "Candida albicans",
    "pIC50": 4.62
  }
]

Moving on to another compound below.
Reading of pIC50 for CCC(C)/C=C(C)/C=C/C1=CC2=C(Cl)C(=O)[C@@](C)(OC(=O)/C=C(\C)CC(=O)O)C(=O)C2=CO1 (some centres unmarked) with Candida albicans: 4.61

* * *

Can you tell me pIC50 for the items I'm about to list?
TARGET_ENTITY: UniProt:P22303
Sequence (P22303 32-614, species assumed): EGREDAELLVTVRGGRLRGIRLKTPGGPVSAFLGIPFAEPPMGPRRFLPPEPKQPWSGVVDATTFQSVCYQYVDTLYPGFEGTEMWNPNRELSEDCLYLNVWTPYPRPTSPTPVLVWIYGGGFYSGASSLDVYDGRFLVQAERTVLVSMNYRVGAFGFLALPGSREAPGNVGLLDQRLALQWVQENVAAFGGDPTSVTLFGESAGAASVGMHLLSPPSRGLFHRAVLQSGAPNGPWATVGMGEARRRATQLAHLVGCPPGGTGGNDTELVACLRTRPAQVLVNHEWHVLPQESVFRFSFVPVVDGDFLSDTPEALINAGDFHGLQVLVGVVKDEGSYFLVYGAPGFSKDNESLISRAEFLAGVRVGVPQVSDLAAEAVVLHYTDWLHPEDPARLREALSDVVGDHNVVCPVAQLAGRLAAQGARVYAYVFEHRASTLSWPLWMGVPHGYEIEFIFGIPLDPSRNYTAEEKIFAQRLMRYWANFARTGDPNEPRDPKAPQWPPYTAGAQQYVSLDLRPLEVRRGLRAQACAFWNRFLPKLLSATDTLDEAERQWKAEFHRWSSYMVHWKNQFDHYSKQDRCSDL
ASSAY_PROCEDURE: biochemical
Assay type: biochemical
MEASUREMENT_SETUP: enzyme assay
pIC50: −log10 of the molar value.

# count of solved cases: 3
[
  {
    "COMPOUND": "CCC(C)/C=C(C)/C=C/C1=CC2=C(Cl)C(=O)C(C)(OC(=O)/C=C(\\C)CC(=O)O)C(=O)C2(O)CO1 (stereo not shown) [isochromophilone XI (5), isochromophilone XI]",
    "pIC50": "< 4.30"
  },
  {
    "COMPOUND": "CCC(C)C(O)C(C)(O)/C=C/C1=CC2=C(Cl)C(=O)[C@@](C)(OC(=O)/C=C(\\C)CC(=O)O)C(=O)C2=CO1 (stereo partly shown) [helicusin E (3), helicusin E]",
    "pIC50": "< 4.30"
  },
  {
    "COMPOUND": "CCC(C)/C=C(C)/C=C/C1=CC2=C(Cl)C(=O)[C@@](C)(OC(=O)/C=C(\\C)CC(=O)O)C(=O)C2=CO1 (stereo partly shown) [helicusin A (1), helicusin A]",
    "pIC50": 5.68
  }
]

Note: attention shifts to another entry.
Measured pIC50 of CCC(C)C=C(C)C=CC1=CC2=C(Cl)C(=O)C(C)(O)C(=O)C2=CO1 (stereo not shown) [deacetylsclerotiorin (2)] : < 4.30

* * *

Tested on: Septoria tritici
ASSAY_PROCEDURE: Antifungal assay, Septoria tritici (optical density)
Format: cell-based
MEASUREMENT_SETUP: Zymoseptoria tritici, 48 h, read-out: IC50 Septoria tritici
MEASURED_ENDPOINT: IC50 (nM)
Numbers only, in nM.

# compound O=C(Nc1ccccc1-c1ccc(Cl)cc1)c1cccnc1Cl [boscalid, reference compound] ; its IC50 = 530

* * *

Kindly state pIC50 for each of the entries shown.
Tested on: Trichophyton rubrum
ASSAY_PROCEDURE: Antifungal assay, Trichophyton rubrum (optical density)
Assay type: cell-based
MEASUREMENT_SETUP: Trichophyton rubrum; antifungal; 72 h at 28 °C
One number for each entry, as −log10 of the molar value.

[
  {
    "MOLECULE": "CCC(C)/C=C(C)/C=C/C1=CC2=C(Cl)C(=O)C(C)(OC(=O)/C=C(\\C)CC(=O)O)C(=O)C2(O)CO1 (centres unmarked) [isochromophilone XI (5), isochromophilone XI]",
    "pIC50": 4.38
  },
  {
    "MOLECULE": "CCC(C)C=C(C)C=CC1=CC2=C(Cl)C(=O)C(C)(O)C(=O)C2=CO1 (centres unmarked) [deacetylsclerotiorin (2)]",
    "pIC50": 5.55
  }
]

Turning now to a further record.
// field: pIC50; key: CCC(C)/C=C(C)/C=C/C1=CC2=C(Cl)C(=O)[C@@](C)(OC(=O)/C=C(\C)CC(=O)O)C(=O)C2=CO1 (some centres unmarked) [helicusin A (1), helicusin A] ; value = 5.14

* * *

TARGET_ENTITY: Phosphodiesterase 4
ASSAY_PROCEDURE: Enzyme inhibition assay PDE4
Format: biochemical
MEASUREMENT_SETUP: enzyme assay
Could you please report measured pIC50 for the items listed next?
Numbers only, as −log10 of the molar value.

Record excerpt, results attached:
[
  {
    "COMPOUND": "CCC(C)/C=C(C)/C=C/C1=CC2=C(Cl)C(=O)C(C)(OC(=O)/C=C(\\C)CC(=O)O)C(=O)C2(O)CO1 (centres unmarked)",
    "TARGET_ENTITY": "Phosphodiesterase 4",
    "MEASURED_ENDPOINT": "pIC50",
    "OBSERVED_RESULT": 5.08
  },
  {
    "COMPOUND": "CCC(C)C=C(C)C=CC1=CC2=C(Cl)C(=O)C(C)(O)C(=O)C2=CO1 (centres unmarked)",
    "TARGET_ENTITY": "Phosphodiesterase 4",
    "MEASURED_ENDPOINT": "pIC50",
    "OBSERVED_RESULT": 5.55
  }
]

Please look at the following compound next.
For record CCC(C)/C=C(C)/C=C/C1=CC2=C(Cl)C(=O)[C@@](C)(OC(=O)/C=C(\C)CC(=O)O)C(=O)C2=CN1CCO (some centres unmarked) the listed pIC50 is 4.93

* * *

Test system: Candida albicans
ASSAY_PROCEDURE: Antifungal assay, Candida albicans
Type: cell-based
MEASUREMENT_SETUP: Candida albicans; antifungal
pIC50: −log10 of the molar value.
MEASURED_ENDPOINT: pIC50

// for each compound below, give its pIC50
1. CCC(C)/C=C(C)/C=C/C1=CC2=C(Cl)C(=O)[C@@](C)(OC(=O)/C=C(\C)CC(=O)O)C(=O)C2=CN1CCO (stereo partly drawn)
2. CCC(C)C(O)C(C)(O)/C=C/C1=CC2=C(Cl)C(=O)[C@@](C)(OC(=O)/C=C(\C)CC(=O)O)C(=O)C2=CO1 (stereo partly drawn)
3. CCC(C)/C=C(C)/C=C/C1=CC2=C(Cl)C(=O)C(C)(OC(=O)/C=C(\C)CC(=O)O)C(=O)C2(O)CO1 (stereo not drawn)

Reply:
1: < 4.00; 2: < 3.70; 3: < 4.00
